# experimental-details: Toxicity liver stage against HepG2, at 10uM
# Type: cell-based
# Parameters: test concentration 10 uM, cell line HepG2-A16-CD81EGFP
# test-context: human, HepG2-A16-CD81EGFP cells; read-out: INHIBITION
measured-property: cytotoxicity at 10 µM (%)
Write the answer as a number in %, unit excluded.

Reported cytotoxicity at 10 µM for CC(OCc1ccccc1)C(=O)NC1CCN(CC(N)=O)CC1 (centres undefined) was -3.45

Reported cytotoxicity at 10 µM for CN1C(=O)CC(c2cnn(C)c2)C12CCN(C(=O)c1ccno1)CC2 (centres undefined) was -74.1

Reported cytotoxicity at 10 µM for `O=C(c1ccno1)N1CC[C@@H]2CN(C3CCOCC3)CCO[C@@H]2C1` was -102

Reported cytotoxicity at 10 µM for COCCC(=O)N1CCC2(CCCN(Cc3cc(OC)ccc3F)C2)C1 (centres undefined) was 3.55

Reported cytotoxicity at 10 µM for `Cc1ccccc1N1CCCN(C(=O)CCCn2ccnc2C)CC1` was -3.3

Reported cytotoxicity at 10 µM for `O=C1COC2(CCN(Cc3ccc(F)cc3)CC2)CN1` was -25.7

Reported cytotoxicity at 10 µM for Cc1cc(CN2CCC(CNC(=O)c3noc4c3CCCC4)C2)[nH]n1 (centres undefined) was -142

Reported cytotoxicity at 10 µM for `CCOC(=O)C1CCN(C(=O)c2cnn(-c3ccc(C)cc3)c2N)CC1` was 1.84

Reported cytotoxicity at 10 µM for c1ccc(CN2CCNCC(Cc3cnccn3)C2)cc1 (centres undefined) was -8.65

Reported cytotoxicity at 10 µM for `Cc1cc(C(=O)N2CCc3ncc(CN4CCCC4)n3CC2)no1` was -108

Reported cytotoxicity at 10 µM for `CC1CCN(c2nc3c(cnn3-c3ccccc3)c(=O)[nH]2)CC1` was -9.5

Reported cytotoxicity at 10 µM for CN(C)C(c1ccccn1)C1CCC(CNC(=O)C2CCCC2)CC1 (centres undefined) was 10.5

Reported cytotoxicity at 10 µM for COc1ccc(CC(=O)N2CCCC(c3nncn3C)C2)cc1 (centres undefined) was -7.47

Reported cytotoxicity at 10 µM for Cc1nccn1C1CCCN(C(=O)c2cc(Cl)c3c(c2)OCO3)C1 (centres undefined) was -2.78

Reported cytotoxicity at 10 µM for `O=C(O)c1ccc(F)c(S(=O)(=O)Nc2c(F)cccc2-n2cccn2)c1` was -5.59

Reported cytotoxicity at 10 µM for Cc1nc(C2CCCCN2S(C)(=O)=O)no1 (centres undefined) was 9.23

Reported cytotoxicity at 10 µM for `Cc1nc(-n2nc(-c3cccs3)cc2N)[nH]c(=O)c1C` was 4.84

Reported cytotoxicity at 10 µM for `COc1ccc2nc(CCNC(=O)c3cc(CC(C)C)no3)[nH]c2c1` was 0.808

Reported cytotoxicity at 10 µM for `O=C(Nc1ncn(CC(=O)N2CCCCCC2)n1)C1CCCC1` was -11.2

Reported cytotoxicity at 10 µM for `CC(=O)NCCNC(=O)Nc1ccc(Br)cc1C(C)C` was 6.54

Reported cytotoxicity at 10 µM for `COc1ccc(OC)c(C(=O)Nc2cccnc2-n2cncn2)c1` was -17

Reported cytotoxicity at 10 µM for `CCS(=O)(=O)N1C[C@@H](Oc2ccccn2)[C@H]2OCCC[C@H]21` was 5.08

Reported cytotoxicity at 10 µM for COc1ncccc1C1CC(=O)Nc2cc(NS(C)(=O)=O)ccc21 (centres undefined) was -8.1

Reported cytotoxicity at 10 µM for `COc1ccc(CNC(=O)N2CCCN(CC3CCCCC3)CC2)cn1` was -3.36
